Target: human TDP1 (Homo sapiens, UniProt Q9NUW8)
Sequence (Q9NUW8 whole entry): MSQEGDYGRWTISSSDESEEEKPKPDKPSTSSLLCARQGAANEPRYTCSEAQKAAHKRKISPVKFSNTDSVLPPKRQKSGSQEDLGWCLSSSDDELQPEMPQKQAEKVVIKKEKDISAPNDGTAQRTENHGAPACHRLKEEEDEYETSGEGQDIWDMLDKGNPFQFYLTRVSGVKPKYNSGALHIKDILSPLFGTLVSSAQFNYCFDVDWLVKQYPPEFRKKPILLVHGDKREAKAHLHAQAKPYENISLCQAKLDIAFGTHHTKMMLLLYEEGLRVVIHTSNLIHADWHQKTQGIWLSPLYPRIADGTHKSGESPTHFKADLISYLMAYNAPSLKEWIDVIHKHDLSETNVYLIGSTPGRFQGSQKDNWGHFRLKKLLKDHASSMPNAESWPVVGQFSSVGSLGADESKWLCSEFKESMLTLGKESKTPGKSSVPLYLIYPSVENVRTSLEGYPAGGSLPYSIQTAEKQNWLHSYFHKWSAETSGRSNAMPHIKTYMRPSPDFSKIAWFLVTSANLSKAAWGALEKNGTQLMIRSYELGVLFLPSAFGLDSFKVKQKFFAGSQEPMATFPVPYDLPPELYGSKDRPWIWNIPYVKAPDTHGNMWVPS
measure: Ki (µM)
Reply with just the number (in µM).

Request: Look up and report measured Ki (human TDP1 (Homo sapiens, UniProt Q9NUW8)) for the following compound: CC(C)=CCC12OC1(O)C(=O)c1c(O)cccc1C2=O (stereo not shown) [2,3-epoxy-8-hydroxy-lapachol]
Response: 40.9

---

Recorded IC50, one value per entry.
Molecular target: human TDP1 (Homo sapiens, UniProt Q9NUW8)
Experiment: Continuous FRET assay, IC50 determination of inhibitors of TDP1
Type: biochemical
Details: 500 pM TDP1, 1.5 μM FRET substrate, 1 h preincubation
Reply with just the number (in µM).

C[C@@]12CCC(=O)c3coc(c31)C(=O)c1cc3c(O)ccc(OS(=O)(=O)O)c3cc12.[Na+] [Halenaquinol sulfate]
24

Field: next compound
Request: Indicate its recorded IC50; the compound in question is C[C@@]12CCC(=O)c3coc(c31)C(=O)c1cc3c(cc12)C(=O)C=CC3=O [Halenaquinone]
Response: 26

Recorded values, source paper PMC7900901.
